Value source: paper PMC2248166

# measured target: HLA B*0801 (Homo sapiens, UniProt P01889, A93T/A95T/D138N/E176V/E187T/K202T/Q94N/R180D/S35A/V36M/Y33D/Y91F)
# experiment description: biochemical
Where a SMILES comes first, the peptide text is derived from it.
assay metric: log10 of IC50 (log10 of the value in nM)
Hello, just confirming the data are log10 of IC50 with units of nM.

Some solved entries appear below for comparison.
| compound | data value |
| --- | --- |
| CC[C@H](C)[C@H](NC(=O)[C@H](Cc1ccc(O)cc1)NC(=O)[C@@H](NC(=O)[C@@H](N)CO)C(C)C)C(=O)N[C@@H](CCCNC(=N)N)C(=O)N1CCC[C@H]1C(=O)N[C@H](C(=O)N[C@@H](CO)C(=O)N[C@@H](CC(C)C)C(=O)O)[C@@H](C)O [3102.0627] (H-SVYIRPTSL-OH) | 1.04 |
| CC(C)C[C@H](NC(=O)[C@H](CCCNC(=N)N)NC(=O)[C@H](Cc1c[nH]cn1)NC(=O)[C@H](CC(C)C)NC(=O)[C@H](Cc1ccc(O)cc1)NC(=O)[C@H](CCCNC(=N)N)NC(=O)[C@H](CCCNC(=N)N)NC(=O)[C@@H]1CCCN1C(=O)[C@@H](N)CS)C(=O)O [3102.0755] (H-CPRRYLHRL-OH) | 0.43 |

*Q* # query: log10 of IC50 of entry CC(C)C[C@H](NC(=O)[C@@H](N)CC(C)C)C(=O)N[C@@H](CCCCN)C(=O)N[C@@H](Cc1ccccc1)C(=O)N[C@@H](CCCNC(=N)N)C(=O)N[C@H](C(=O)N[C@@H](CCC(=O)O)C(=O)N[C@@H](CO)C(=O)N[C@@H](CS)C(=O)O)C(C)C [3102.0675] (H-LLKFRVESC-OH)
*A* 1.87

*Q* # query: log10 of IC50 of entry CC(C)C[C@H](NC(=O)[C@@H](NC(=O)[C@H](CO)NC(=O)[C@H](Cc1ccccc1)NC(=O)[C@H](CC(C)C)NC(=O)[C@H](CO)NC(=O)[C@H](CC(C)C)NC(=O)[C@H](CC(C)C)NC(=O)[C@@H](N)Cc1ccc(O)cc1)[C@@H](C)O)C(=O)O [3102.0750] (H-YLLSLFSTL-OH)
*A* 0.60

*Q* # query: log10 of IC50 of entry CC[C@H](C)[C@H](NC(=O)[C@H](CC(C)C)NC(=O)[C@@H](N)CCSC)C(=O)N[C@@H](CC(C)C)C(=O)N[C@@H](CC(N)=O)C(=O)N[C@@H](Cc1ccccc1)C(=O)N[C@@H](CS)C(=O)N[C@@H](CCCCN)C(=O)N[C@@H](CC(C)C)C(=O)O [3102.0702] (H-MLILNFCKL-OH)
*A* 0.59

*Q* # query: log10 of IC50 of entry CC(C)[C@H](NC(=O)[C@H](CCCNC(=N)N)NC(=O)[C@@H](N)Cc1ccccc1)C(=O)N[C@H](C(=O)N[C@@H](CCCCN)C(=O)N1CCC[C@H]1C(=O)N[C@@H](CC(N)=O)C(=O)N[C@@H](CO)C(=O)N[C@@H](Cc1ccccc1)C(=O)O)C(C)C [3102.1127] (H-FRVVKPNSF-OH)
*A* 1.96

*Q* # query: log10 of IC50 of entry CC[C@H](C)[C@H](NC(=O)[C@@H](NC(=O)[C@H](CS)NC(=O)[C@@H](NC(=O)[C@H](CCCNC(=N)N)NC(=O)[C@H](CO)NC(=O)[C@H](CCCCN)NC(=O)[C@H](CO)NC(=O)[C@@H](N)CC(N)=O)[C@@H](C)CC)C(C)C)C(=O)O [3102.0966] (H-NSKSRICVI-OH)
*A* 1.04
